B1: CDKL4 (parent)
chain: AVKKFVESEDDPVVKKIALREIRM

# Variants of: B1
# Measurement protocol: protein stability index of a GFP-peptide fusion (GPS, HEK-293T) (PSI 1-6); higher = more stable;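 note: lentivirally expressed fusions sorted by FACS into six bins by GFP to DsRed ratio, PSI derived from sequencing read proportions per bin multiplied by bin number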
# Condition description: c terminus: a fixed tail appended
Provide the reported protein stability index of each item.
Give bare numbers.

Example variants with recorded protein stability index:
# Alteration, protein stability index
records = [
    ("D11C", 2.16),
    ("M24L", 2.74),
    ("I17C", 3.32),
    ("V14G", 2.97),
    ("K15R", 2.81),
]

# return protein stability index for each item in the list
1. S8G
2. K4Q
3. I22K

OUT:
[2.68, 3.17, 4.29]

For each of the variants below, note its protein stability index.
1. M24N
2. K15G
3. I22E
4. V14M
5. E7R
6. L19N
7. K3I

OUT:
1: 2.95; 2: 2.82; 3: 4.04; 4: 2.69; 5: 2.52; 6: 3.86; 7: 1.91

Give one value of protein stability index per listed variant.
1. E21M
2. R23I
3. V13D
4. D10R
5. I17Y
6. K4D
7. D10S
8. D10Q

OUT:
1. 1.46
2. 1.71
3. 3.67
4. 3.15
5. 2.85
6. 4.07
7. 2.83
8. 2.8

Could you report protein stability index for every entry in the following list?
1. M24P
2. E21H
3. D10E
4. K4F

OUT:
3.43
2.95
2.99
2.13

These measurements were taken from the supplement of paper PMC10567573.
